The values you see were collected from patent US7084136B2.

Reported pIC50 by item:
Target: PGD2 receptor (Homo sapiens, UniProt Q13258)
Construct: A suspension adjusted to contain the platelets at a final concentration of 5×10^8/ml was warmed at 37° C; endogenous in cells; host or cells: washed human platelets from a healthy volunteer
Sequence (Q13258 1-359): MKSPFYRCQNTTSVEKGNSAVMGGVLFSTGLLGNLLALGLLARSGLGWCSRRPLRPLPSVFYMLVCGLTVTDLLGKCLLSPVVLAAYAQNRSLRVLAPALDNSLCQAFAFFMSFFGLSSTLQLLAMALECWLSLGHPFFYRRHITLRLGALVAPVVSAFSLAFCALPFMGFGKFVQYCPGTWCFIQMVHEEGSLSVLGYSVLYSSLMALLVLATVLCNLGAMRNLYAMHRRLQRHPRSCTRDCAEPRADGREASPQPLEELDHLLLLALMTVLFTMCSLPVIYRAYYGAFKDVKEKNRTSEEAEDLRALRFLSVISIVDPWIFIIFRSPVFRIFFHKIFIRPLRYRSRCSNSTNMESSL
Test: Antagonistic activity against PGD2 receptor using human platelet (inhibition of PGD2-induced cAMP increase)
Assay type: cell-based
Conditions: human platelet; 0.1 μM PGD2; read-out: Inhibitory activity for the increase of cAMP caused by PGD2 in human platelet IC50
pIC50: −log10 of the molar value.
reported-endpoint: pIC50

[[record]]
compound = "O=C(O)CCC/C=C\\C[C@H]1[C@@H]2CC[C@@H](C2)[C@@H]1NC(=O)c1ccc(S(=O)(=O)n2cccc2)s1"
reported_endpoint = "pIC50"
numeric_readout = 8.89

[[record]]
compound = "Cc1cccn1S(=O)(=O)c1ccc(C(=O)N[C@@H]2[C@@H](CCCC/C=C/C(=O)O)C[C@H]3C[C@@H]2C3(C)C)s1 [II-7I-55a]"
reported_endpoint = "pIC50"
numeric_readout = 7.20

[[record]]
compound = "O=C(O)CCC/C=C\\C[C@H]1[C@@H]2CC[C@@H](C2)[C@@H]1NC(=O)c1csc2c(Cc3ccoc3)cccc12"
reported_endpoint = "pIC50"
numeric_readout = 7.77

[[record]]
compound = "CC1(C)[C@H]2C[C@H](C/C=C\\CCCC(=O)O)[C@@H](NC(=O)c3ccc(Sc4cccs4)s3)[C@@H]1C2"
reported_endpoint = "pIC50"
numeric_readout = 7.62


* * *

Reported IC50 by item:
Molecular target: PGD2 receptor (Homo sapiens)
Construct: A suspension adjusted to contain the platelets at a final concentration of 5×10^8/ml was warmed at 37° C; endogenous in cells; host or cells: washed human platelets from a healthy volunteer
Assay: Binding activity to PGD2 receptor ([3H]PGD2, human platelet membrane fraction)
Settings: human platelet membrane fraction; read-out: Binding activity to PGD2 receptor in human platelet membrane fraction IC50
reported-endpoint: IC50 (nM)

[[record]]
compound = "O=C(O)CCC/C=C\\C[C@H]1[C@@H]2CC[C@@H](C2)[C@@H]1NC(=O)c1csc2c(Cc3cccs3)cccc12 [I-168]"
reported_endpoint = "IC50"
scale_unit = "nM"
numeric_readout = 0.46

[[record]]
compound = "O=C(O)CCC/C=C\\C[C@H]1[C@@H]2CC[C@@H](C2)[C@@H]1NC(=O)c1ccc(S(=O)(=O)c2cccs2)s1 [I-47]"
reported_endpoint = "IC50"
scale_unit = "nM"
numeric_readout = 4.1

[[record]]
compound = "O=C(O)CCC/C=C\\C[C@H]1[C@@H]2CC[C@@H](C2)[C@@H]1NC(=O)c1ccc(Sc2cccs2)s1 [I-59]"
reported_endpoint = "IC50"
scale_unit = "nM"
numeric_readout = 0.41

[[record]]
compound = "CC1(C)[C@H]2C[C@H](C/C=C\\CCCC(=O)O)[C@@H](NC(=O)c3ccc(S(=O)(=O)c4cccs4)s3)[C@@H]1C2 [II-47]"
reported_endpoint = "IC50"
scale_unit = "nM"
numeric_readout = 0.96

[[record]]
compound = "CC1(C)[C@H]2C[C@H](C/C=C\\CCCC(=O)O)[C@@H](NC(=O)c3ccc(Cc4cccc(-c5ccccc5)c4)s3)[C@@H]1C2 [II-138]"
reported_endpoint = "IC50"
scale_unit = "nM"
numeric_readout = 32

[[record]]
compound = "O=C(O)CCC/C=C\\C[C@H]1[C@@H]2CC[C@@H](C2)[C@@H]1NC(=O)c1ccc(SCc2cccs2)cc1 [I-66]"
reported_endpoint = "IC50"
scale_unit = "nM"
numeric_readout = 4.6

[[record]]
compound = "O=C(O)CCC/C=C\\C[C@H]1[C@@H]2CC[C@@H](C2)[C@@H]1NC(=O)c1csc2c(Cc3ccccc3)cccc12 [I-143]"
reported_endpoint = "IC50"
scale_unit = "nM"
numeric_readout = 2.7

[[record]]
compound = "COc1ccccc1Cc1ccc(C(=O)N[C@@H]2[C@@H](C/C=C\\CCCC(=O)O)C[C@H]3C[C@@H]2C3(C)C)s1 [II-126]"
reported_endpoint = "IC50"
scale_unit = "nM"
numeric_readout = 4.6

[[record]]
compound = "Cc1cccn1S(=O)(=O)c1ccc(C(=O)N[C@@H]2[C@@H](C/C=C\\CCCC(=O)O)C[C@H]3C[C@@H]2C3(C)C)s1 [II-55]"
reported_endpoint = "IC50"
scale_unit = "nM"
numeric_readout = 1.5

[[record]]
compound = "O=C(O)CCC/C=C\\C[C@H]1[C@@H]2CC[C@@H](C2)[C@@H]1NC(=O)c1csc2c(Cc3ccoc3)cccc12 [I-170]"
reported_endpoint = "IC50"
scale_unit = "nM"
numeric_readout = 0.92

[[record]]
compound = "O=C(O)CCC/C=C\\C[C@H]1[C@@H]2CC[C@@H](C2)[C@@H]1NC(=O)c1ccc(S(=O)(=O)n2cccc2)cc1 [I-10]"
reported_endpoint = "IC50"
scale_unit = "nM"
numeric_readout = 1.6

[[record]]
compound = "O=C(O)CCC/C=C\\C[C@H]1[C@@H]2CC[C@@H](C2)[C@@H]1NC(=O)c1ccc(S(=O)(=O)c2ccsc2)s1 [I-80]"
reported_endpoint = "IC50"
scale_unit = "nM"
numeric_readout = 6.6

[[record]]
compound = "O=C(O)CCC/C=C\\C[C@H]1[C@@H]2CC[C@@H](C2)[C@@H]1NC(=O)c1ccc(SCc2cccs2)s1 [I-106]"
reported_endpoint = "IC50"
scale_unit = "nM"
numeric_readout = 13

[[record]]
compound = "O=C(O)CCC/C=C\\C[C@H]1[C@@H]2CC[C@@H](C2)[C@@H]1NC(=O)c1csc2c(Cc3ccsc3)cccc12 [I-169]"
reported_endpoint = "IC50"
scale_unit = "nM"
numeric_readout = 0.61

[[record]]
compound = "CC1(C)[C@H]2C[C@H](C/C=C\\CCCC(=O)O)[C@@H](NC(=O)c3ccc(S(=O)(=O)c4cccc(O)c4)s3)[C@@H]1C2 [II-117]"
reported_endpoint = "IC50"
scale_unit = "nM"
numeric_readout = 22

[[record]]
compound = "Cc1cccc(SCc2ccc(C(=O)N[C@H]3[C@H]4CC[C@H](C4)[C@@H]3C/C=C\\CCCC(=O)O)s2)c1 [I-132]"
reported_endpoint = "IC50"
scale_unit = "nM"
numeric_readout = 32

[[record]]
compound = "O=C(O)CCC/C=C\\C[C@H]1[C@@H]2CC[C@@H](C2)[C@@H]1NC(=O)c1cc2ccc(Cc3ccccc3)cc2s1 [I-160]"
reported_endpoint = "IC50"
scale_unit = "nM"
numeric_readout = 28

[[record]]
compound = "O=C(O)CCC/C=C\\C[C@H]1[C@@H]2CC[C@@H](C2)[C@@H]1NC(=O)c1ccc(Cc2cc3ccccc3o2)s1 [I-136]"
reported_endpoint = "IC50"
scale_unit = "nM"
numeric_readout = 23

[[record]]
compound = "O=C(O)CCC/C=C\\C[C@H]1[C@@H]2CC[C@@H](C2)[C@@H]1NC(=O)c1ccc(Cc2csc3ccccc23)s1 [I-182]"
reported_endpoint = "IC50"
scale_unit = "nM"
numeric_readout = 61


* * *

Target: PGD2 receptor (Homo sapiens)
Construct: A suspension adjusted to contain the platelets at a final concentration of 5×10^8/ml was warmed at 37° C; endogenous in cells; host or cells: washed human platelets from a healthy volunteer
Experiment: Antagonistic activity against PGD2 receptor using human platelet (inhibition of PGD2-induced cAMP increase)
Format: cell-based
Conditions: human platelet; 0.1 μM PGD2; read-out: Inhibitory activity for the increase of cAMP caused by PGD2 in human platelet IC50
Reported IC50 by item:
reported-endpoint: IC50 (nM)

[[record]]
molecule = "Cc1cccn1S(=O)(=O)c1ccc(C(=O)N[C@@H]2[C@@H](C/C=C\\CCCC(=O)O)C[C@H]3C[C@@H]2C3(C)C)s1 [II-55]"
numeric_readout = 3.9

[[record]]
molecule = "COc1ccccc1Cc1ccc(C(=O)N[C@H]2[C@H]3CC[C@H](C3)[C@@H]2CCCC/C=C/C(=O)O)s1 [I-71-126a]"
numeric_readout = 21

[[record]]
molecule = "O=C(O)CCC/C=C\\C[C@H]1[C@@H]2CC[C@@H](C2)[C@@H]1NC(=O)c1ccc(Sc2ccsc2)s1 [I-79]"
numeric_readout = 24

[[record]]
molecule = "Cc1ccc(Cc2ccc(C(=O)N[C@H]3[C@H]4CC[C@H](C4)[C@@H]3C/C=C\\CCCC(=O)O)s2)s1 [I-129]"
numeric_readout = 22

[[record]]
molecule = "Cc1ccc(C)n1S(=O)(=O)c1ccc(C(=O)N[C@H]2[C@H]3CC[C@H](C3)[C@@H]2CCCC/C=C/C(=O)O)s1 [I-71-270a]"
numeric_readout = 26

[[record]]
molecule = "Cc1ccc(S(=O)(=O)c2ccc(C(=O)N[C@H]3[C@H]4CC[C@H](C4)[C@@H]3C/C=C\\CCCC(=O)O)s2)s1 [I-82]"
numeric_readout = 53

[[record]]
molecule = "CC1(C)[C@H]2C[C@H](C/C=C\\CCCC(=O)O)[C@@H](NC(=O)c3ccc(S(=O)(=O)n4cccc4)s3)[C@@H]1C2 [II-1]"
numeric_readout = 11

[[record]]
molecule = "CC1(C)[C@H]2C[C@H](C/C=C\\CCCC(=O)O)[C@@H](NC(=O)c3ccc(S(=O)(=O)c4ccccc4)s3)[C@@H]1C2 [II-37]"
numeric_readout = 35

[[record]]
molecule = "O=C(O)COCCCC[C@H]1[C@@H]2CC[C@@H](C2)[C@@H]1NC(=O)c1ccc(Sc2cccs2)s1 [I-7M-59a]"
numeric_readout = 24

[[record]]
molecule = "O=C(O)CCC/C=C\\C[C@H]1[C@@H]2CC[C@@H](C2)[C@@H]1NC(=O)c1ccc(CSc2cccs2)s1 [I-104]"
numeric_readout = 1.6

[[record]]
molecule = "O=C(O)CCC/C=C\\C[C@H]1[C@@H]2CC[C@@H](C2)[C@@H]1NC(=O)c1cc2ccc(Cc3ccccc3)cc2s1 [I-160]"
numeric_readout = 85

[[record]]
molecule = "O=C(O)CCC/C=C\\C[C@H]1[C@@H]2CC[C@@H](C2)[C@@H]1NC(=O)c1ccc(S(=O)(=O)c2cccs2)s1 [I-47]"
numeric_readout = 7

[[record]]
molecule = "O=C(O)CCC/C=C\\C[C@H]1[C@@H]2CC[C@@H](C2)[C@@H]1NC(=O)c1ccc(Sc2cccs2)s1 [I-59]"
numeric_readout = 4.6

[[record]]
molecule = "CC1(C)[C@H]2C[C@H](C/C=C\\CCCC(=O)O)[C@@H](NC(=O)c3ccc(S(=O)(=O)c4cccs4)s3)[C@@H]1C2 [II-47]"
numeric_readout = 4

[[record]]
molecule = "O=C(O)CCC/C=C\\C[C@H]1[C@@H]2CC[C@@H](C2)[C@@H]1NC(=O)c1cc(Cc2cccs2)cs1 [I-88]"
numeric_readout = 4.7

[[record]]
molecule = "O=C(O)CCC/C=C\\C[C@H]1[C@@H]2CC[C@@H](C2)[C@@H]1NC(=O)c1ccc(Cc2ccccc2)s1 [I-31]"
numeric_readout = 5.7

[[record]]
molecule = "O=C(O)CCC/C=C\\C[C@H]1[C@@H]2CC[C@@H](C2)[C@@H]1NC(=O)c1ccc(Cc2ccc(OCc3ccccc3)c(O)c2)s1 [I-146]"
numeric_readout = 73

[[record]]
molecule = "O=C(O)CCC/C=C\\C[C@H]1[C@@H]2CC[C@@H](C2)[C@@H]1NC(=O)c1ccc(SCc2cccs2)s1 [I-106]"
numeric_readout = 9.3

[[record]]
molecule = "O=C(O)CCC/C=C\\C[C@H]1[C@@H]2CC[C@@H](C2)[C@@H]1NC(=O)c1ccc(Cc2cccs2)s1 [I-93]"
numeric_readout = 8.4

[[record]]
molecule = "O=C(O)CCC/C=C\\C[C@H]1[C@@H]2CC[C@@H](C2)[C@@H]1NC(=O)c1ccc(S(=O)(=O)c2cccc(O)c2)s1 [I-117]"
numeric_readout = 47

[[record]]
molecule = "O=C(O)CCC/C=C\\C[C@H]1[C@@H]2CC[C@@H](C2)[C@@H]1NC(=O)c1csc2c(Cc3ccsc3)cccc12 [I-169]"
numeric_readout = 26

[[record]]
molecule = "Cc1cccc(Cc2ccc(C(=O)N[C@H]3[C@H]4CC[C@H](C4)[C@@H]3C/C=C\\CCCC(=O)O)s2)c1 [I-131]"
numeric_readout = 41

[[record]]
molecule = "O=C(O)CCC/C=C\\C[C@H]1[C@@H]2CC[C@@H](C2)[C@@H]1NC(=O)c1ccc(S(=O)(=O)n2cccc2)cc1 [I-10]"
numeric_readout = 1.8

[[record]]
molecule = "O=C(O)CCC/C=C\\C[C@H]1[C@@H]2CC[C@@H](C2)[C@@H]1NC(=O)c1csc2c(Cc3ccccc3)cccc12 [I-143]"
numeric_readout = 1.9

[[record]]
molecule = "Cc1ccc(Cc2ccc(C(=O)N[C@H]3[C@H]4CC[C@H](C4)[C@@H]3C/C=C\\CCCC(=O)O)s2)c(C)c1 [I-128]"
numeric_readout = 10

[[record]]
molecule = "O=C(O)CCC/C=C\\C[C@H]1[C@@H]2CC[C@@H](C2)[C@@H]1NC(=O)c1ccn(S(=O)(=O)c2cccs2)c1 [I-94]"
numeric_readout = 10

[[record]]
molecule = "O=C(O)CCC/C=C\\C[C@H]1[C@@H]2CC[C@@H](C2)[C@@H]1NC(=O)c1csc2c(Cc3cccs3)cccc12 [I-168]"
numeric_readout = 29

[[record]]
molecule = "O=C(O)CCC/C=C\\C[C@H]1[C@@H]2CC[C@@H](C2)[C@@H]1NC(=O)c1ccc(S(=O)(=O)c2ccsc2)s1 [I-80]"
numeric_readout = 39

